System: HOP-62 NSCLC
Experiment: NCI-60 one-dose screen, 48 h
Conditions: 10 µM unless noted
The panel holds about 83,000 compounds, 20% with a hit somewhere; the sample as a whole holds those more often. Active and inactive are the calls of the source. How the source made its calls: active means growth percent below 10; inactive means the rest.
Assign a class; possible classes are yes (1) (active), no (0) (inactive)

>  <COMPOUND>
OCCNc1nccc(N2CCN(c3ccnc4cc(Cl)ccc34)CC2)n1

>  <TARGET SYSTEM>
HOP-62 NSCLC

>  <DISCRETE LABEL>
no (0)

$$$$
>  <COMPOUND>
N#CN1CC[C@H](C(=O)Nc2cc3cc(C(N)=O)ccc3cn2)C1

>  <TARGET SYSTEM>
HOP-62 NSCLC

>  <DISCRETE LABEL>
yes (1)

$$$$
>  <COMPOUND>
COc1ccc2c(c1)O/C(=C\c1cccc(OCC(=O)Nc3nc4c(s3)CCCC4)c1)C2=O

>  <TARGET SYSTEM>
HOP-62 NSCLC

>  <DISCRETE LABEL>
no (0)

$$$$

query: Tell me the recorded outcome of this test for O=S(=O)(Nc1ccc(OC(F)F)cc1)c1ccc(-c2cnc(C3CC3)o2)cc1 .
result: no (0)

query: Tell me the recorded outcome of this test for COc1ccc2c(c1)c(-c1nonc1-c1cn(C)c3ccccc13)cn2C .
result: no (0)

query: Tell me the recorded outcome of this test for CSc1nc(NCCN2CCOCC2)c(C#N)c(-c2cccc([N+](=O)[O-])c2)n1 .
result: no (0)

query: Tell me the recorded outcome of this test for COc1cc(/C=C/C(=O)c2c(C)oc3nc[nH]c(=O)c23)cc(OC)c1OC .
result: no (0)

query: Tell me the recorded outcome of this test for C#Cc1cccc(NC(=O)c2ccccc2NC(=O)CCl)c1 .
result: no (0)

query: Tell me the recorded outcome of this test for COC(=O)c1ccc2oc(NC(=O)c3ccc(Nc4ccc([N+](=O)[O-])cc4C)c([N+](=O)[O-])c3)nc2c1 .
result: no (0)

query: Tell me the recorded outcome of this test for Cn1cc(-c2nonc2-c2c[nH]c3ccc(F)cc23)c2cccnc21 .
result: no (0)

query: Tell me the recorded outcome of this test for CN1CCN=C1c1ccc(NC(=O)c2ccc(C(=O)Nc3ccc(C4=NCCN4C)cc3)cc2)cc1 .
result: no (0)
